Target: T1, EsCas13d, nuclease-dead (Eubacterium siraeum, UniProt B0MS50, R295A;H300A;R849A;H854A)
T1 sequence: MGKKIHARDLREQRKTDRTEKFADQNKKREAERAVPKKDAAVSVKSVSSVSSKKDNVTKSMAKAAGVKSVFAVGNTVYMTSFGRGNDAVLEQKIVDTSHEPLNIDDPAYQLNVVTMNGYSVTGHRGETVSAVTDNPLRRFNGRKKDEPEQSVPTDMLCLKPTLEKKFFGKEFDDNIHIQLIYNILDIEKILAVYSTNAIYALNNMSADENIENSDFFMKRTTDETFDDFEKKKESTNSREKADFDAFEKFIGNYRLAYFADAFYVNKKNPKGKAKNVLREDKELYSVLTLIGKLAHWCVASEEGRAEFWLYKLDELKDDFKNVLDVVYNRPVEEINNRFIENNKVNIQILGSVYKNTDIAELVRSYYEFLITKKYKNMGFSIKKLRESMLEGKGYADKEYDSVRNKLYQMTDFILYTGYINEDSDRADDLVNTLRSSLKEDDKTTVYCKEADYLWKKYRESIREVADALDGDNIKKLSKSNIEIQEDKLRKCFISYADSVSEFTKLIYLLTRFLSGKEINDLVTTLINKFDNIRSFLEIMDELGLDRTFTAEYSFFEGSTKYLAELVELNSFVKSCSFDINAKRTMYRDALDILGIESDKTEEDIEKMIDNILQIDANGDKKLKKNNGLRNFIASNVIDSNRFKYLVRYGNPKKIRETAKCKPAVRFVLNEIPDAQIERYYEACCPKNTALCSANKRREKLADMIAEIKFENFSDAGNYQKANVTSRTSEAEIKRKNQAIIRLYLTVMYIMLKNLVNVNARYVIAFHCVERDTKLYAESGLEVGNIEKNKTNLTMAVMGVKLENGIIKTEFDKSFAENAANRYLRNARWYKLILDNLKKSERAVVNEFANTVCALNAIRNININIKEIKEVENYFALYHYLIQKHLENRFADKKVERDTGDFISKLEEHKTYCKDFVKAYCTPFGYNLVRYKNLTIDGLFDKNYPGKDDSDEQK
Assay: crRNA (strand 1, pre-loaded); Mg2+; 40 mM Tris-HCl pH 7.5, 150 mM NaCl, 6 mM MgCl2, 1 mM DTT, 0.1% Tween-20, 0.2 mg/ml BSA; 25 C; 10 min per concentration, then washed
Conditions: tags: His6-TwinStrep-SUMO cleaved; N-terminal SNAP kept (SNAP-Surface 488); label: 3' end held by stalled T7 RNA polymerase
Provide the recorded pKd for the entries that follow.
Expect pKd as a plain number equal to -log10 of the molar concentration.

Query: Answer with reported pKd of target 1 U11G,C22U (mixed) RNA 1: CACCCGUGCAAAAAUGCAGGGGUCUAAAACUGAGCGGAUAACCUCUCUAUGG RNA 2: GGGAAUGGAUCCACAUCUACGAAUUCGUAUCAUAGAGAGGGUAUCCGCUCACCGAGAUCGGAAGAGCACACGU
Result: 7.38

Query: Answer with reported pKd of target 1 insC 3' of 9,insC 3' of 8 (mixed) RNA 1: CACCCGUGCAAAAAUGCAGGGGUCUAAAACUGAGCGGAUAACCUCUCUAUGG RNA 2: GGGAAUGGAUCCACAUCUACGAAUUCGUACCAUAGAGAGGUUACUCCCGCUCACCGAGAUCGGAAGAGCACACGU
Result: 7.70

Query: Answer with reported pKd of target 2 MT 5'PFS UCA 3'PFS UCC (mixed) RNA 1: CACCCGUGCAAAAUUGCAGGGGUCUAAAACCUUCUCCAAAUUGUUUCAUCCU RNA 2: GGGAAUGGAUCCACAUCUACGAAUUCUCAAGGAUGAAACAAUUUGGAGAAGUCCAGAUCGGAAGAGCACACGU
Result: 8.24

Query: Answer with reported pKd of target 1 insA 3' of 17,insU 3' of 4 (mixed) RNA 1: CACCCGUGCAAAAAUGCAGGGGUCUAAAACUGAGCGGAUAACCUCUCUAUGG RNA 2: GGGAAUGGAUCCACAUCUACGAAUUCGUACCAUAGAAGAGGUUAUCCGCUUCACCGAGAUCGGAAGAGCACACGU
Result: 7.36
